Field: log10 of IC50. Provide a value for each of the molecules that follow.
Target: human type V sPLA2 (Homo sapiens, UniProt P39877)
Construct: unpurified culture supernatant used
Sequence (P39877 21-138): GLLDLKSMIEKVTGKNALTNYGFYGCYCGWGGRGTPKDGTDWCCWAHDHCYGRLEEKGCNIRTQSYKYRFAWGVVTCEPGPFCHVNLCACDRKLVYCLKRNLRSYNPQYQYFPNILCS
Assay: Inhibition test of human secretory phospholipase A2, chromogenic assay, Type V enzyme
Conditions: human type V enzyme (CHO supernatant) 40 μl/well, absorbance change 45 min, OD 405 nm
Plainly stated, the numbers are log10 of IC50 given in nM.

Check out these entries, answers already filled in.
Item Cc1cn2c(Cc3ccccc3)c3c(c2c(OC(C)C(=O)O)n1)C(C(N)=O)=CCC3 (centres unmarked) was tested on human type V sPLA2 (Homo sapiens, UniProt P39877); the reported log10 of IC50 is 0.60

Item COc1cccc(Cc2c3c(c4c(OCC(=O)O)cc(-c5ccccc5)nn24)C(C(N)=O)=CCC3)c1 was tested on human type V sPLA2 (Homo sapiens, UniProt P39877); the reported log10 of IC50 is -0.70

Item COc1cccc(Cc2c3c(c4c(OCC(=O)O)cc(C)nn24)C(C(N)=O)=CCC3)c1 was tested on human type V sPLA2 (Homo sapiens, UniProt P39877); the reported log10 of IC50 is 0.30

Item Cc1cc(OC(C)C(=O)O)c2c3c(c(Cc4ccccc4)n2n1)CCC=C3C(N)=O (centres unmarked) was tested on human type V sPLA2 (Homo sapiens, UniProt P39877); the reported log10 of IC50 is 0.48

Go through the list and state log10 of IC50 for each entry.
1. Cc1cc(OCC(=O)O)c2c3c(c(Cc4ccc(Cl)cc4)n2n1)CCC=C3C(N)=O
2. Cc1cn2c(Cc3ccccc3)c3c(c2c(OCC(=O)O)n1)C(C(N)=O)=CCC3
3. Cc1cc(OC(C)C(=O)O)c2c3c(c(Cc4ccc(Cl)cc4)n2n1)CCC=C3C(N)=O (centres unmarked)
4. Cc1cc(OCC(=O)O)c2c3c(c(Cc4ccccc4)n2n1)CCC=C3C(N)=O
5. Cc1ccc(Cc2c3c(c4c(OCC(=O)O)cc(C)nn24)C(C(N)=O)=CCC3)cc1
6. NC(=O)C1=CCCc2c1c1c(OCC(=O)O)cc(-c3ccccc3)nn1c2Cc1ccccc1
7. Cc1ccc(Cc2c3c(c4c(OC(C)C(=O)O)cc(C)nn24)C(C(N)=O)=CCC3)cc1 (centres unmarked)

Response line:
1. 0.00
2. 0.00
3. 0.00
4. 0.30
5. 0.30
6. -0.70
7. 0.30

Go through the list and state log10 of IC50 for each entry.
1. NC(=O)C1=CCCc2c1c1c(OCC(=O)O)nccn1c2Cc1ccccc1
2. Cc1cn2c(CC3CCCCC3)c3c(c2c(OC(C)C(=O)O)n1)C(C(N)=O)=CCC3 (centres unmarked)
3. COc1cccc(Cc2c3c(c4c(OC(C)C(=O)O)cc(C)nn24)C(C(N)=O)=CCC3)c1 (centres unmarked)

Response line:
0.30
0.00
0.30
